Target: T1, Cynomolgus CD3 epsilon Protein, His Tag (Acrobiosystems, Cat #CDE-05226) (cynomolgus (Macaca fascicularis), UniProt Q95LI5 22-117)
T1 construct: also called monkey CD3e; not shown: His tag
T1 sequence: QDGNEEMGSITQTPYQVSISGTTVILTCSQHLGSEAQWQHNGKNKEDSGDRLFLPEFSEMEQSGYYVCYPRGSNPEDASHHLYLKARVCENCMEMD
Experiment: SPR (Biacore), cynomolgus CD3e His tag
Readout: kon (M⁻¹ s⁻¹)
The response must be a number in M⁻¹ s⁻¹ with no trailing unit.

Some binders with recorded kon:
[[record]]
binder = "1B1-H1K1-IgG1-LALA (antibody, V domains shown, Humanized; human IgG1 with LALA mutations; also called H1K1 (humanized 1B1)) VH: QVQLVQSGAEVKKPGASVKVSCKASGYTFTSYWMHWVRQAPGQGLEWIGNIYPDSGTTNYGEKFKTRVTLTVDTSTSTAYMELSSLRSEDTAVYYCTRDTSGQYYFDYWGQGTLVTVSS VL: DIVMTQSPDSLAVSAGERATMNCKSSQSLLNSRTRKNYLAWYQHKPGQSPKLLIYWASTRESGVPDRFSGSGSGTDFTLTISSLQAEDVAVYYCVQSFSLRAFGGGTKVEIK"
readout_units = "M⁻¹ s⁻¹"
numeric_result = 91400

[[record]]
binder = "10A4-H1K2-IgG1-LALA (antibody, V domains shown, Humanized; human IgG1 with LALA mutations; also called H1K2 (humanized 10A4)) VH: QVQLVQSGAEVKKPGASVKVSCKASGYTFTSYYIHWVRQAPGQRLEFIGWIYPGNVNAKYNEKFKGRVTITTDKSASTAYMELSSLRSEDTAVYYCAIKGGNYDWGQGTLVTVSS VL: DVVMTQSPLSLPVTLGQPASISCQSSQSLLDSDGKTYLNWLQQRPGQSPRRLIYLVSKLGSGVPDRFSGSGSGTDFTLKISRVEAEDVGVYYCWQGTHFPRTFGGGTKLEIK"
readout_units = "M⁻¹ s⁻¹"
numeric_result = 57500


// switching to the query binder
Provide measured kon value, entry: 1B1-H1K2-IgG1-LALA (antibody, V domains shown, Humanized; human IgG1 with LALA mutations; also called H1K2 (humanized 1B1)) VH: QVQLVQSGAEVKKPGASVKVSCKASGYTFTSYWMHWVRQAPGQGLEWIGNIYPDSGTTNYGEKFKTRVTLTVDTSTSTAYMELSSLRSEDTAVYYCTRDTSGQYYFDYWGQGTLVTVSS VL: DIVMTQSPDSLAVSAGERVTMNCKSSQSLLNSRTRKNYLAWYQHKPGQSPKLLIYWASTRESGVPDRFSGSGSGTDFTLTISSLQAEDVAVYYCVQSFSLRAFGGGTKVEIK
94900
